Target: human neuronal constitutive NOS (nNOS) (Homo sapiens (Human), UniProt P29475)
Test: Human nNOS enzyme assay, radiometric [3H]L-arginine to [3H]L-citrulline;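 note: recombinant human nNOS expressed in baculovirus-infected Sf9 cells, enzyme activity measured radiometrically as turnover of [3H]L-arginine into [3H]L-citrulline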
Settings: Table I; ratio eNOSh/nNOSh
Could you please mark met for values of e/n below 20 and not met for values at or above it?

For orientation, consider the following solved cases.
[[record]]
molecule = "CN1CC=C(c2c[nH]c3ccc(CNC(=N)c4cccs4)cc23)CC1"
category_label = "not met"

[[record]]
molecule = "CN1CCC[C@@H]1Cc1c[nH]c2ccc(NC(=N)c3ccco3)cc12"
category_label = "met"

[[record]]
molecule = "CN1CCC[C@H]1Cc1c[nH]c2ccc(NC(=N)c3cccs3)cc12"
category_label = "not met"

[[record]]
molecule = "CN1CC=C(c2c[nH]c3ccc(NC(=N)c4cccs4)cc23)C(F)C1 (centres unmarked)"
category_label = "not met"

[[record]]
molecule = "CNC1CC=C(c2c[nH]c3ccc(NC(=N)c4cccs4)cc23)CC1 (centres unmarked)"
category_label = "met"

[[record]]
molecule = "CCN1CCC(c2c[nH]c3ccc(NC(=N)c4cccs4)cc23)CC1"
category_label = "not met"


Q: Lab note: e/n threshold 20. Does this molecule come in strictly under it? N=C(Nc1ccc2[nH]cc(CCCN3CCOCC3)c2c1)c1cccs1
Ans: met

Q: A record lists N=C(Nc1ccc2[nH]cc(C3CN4CCC3CC4)c2c1)c1cccs1 (centres unmarked) . Is its e/n below 20?
Ans: not met

Q: In plain terms, does CN1CCC[C@@H]1Cc1c[nH]c2ccc(NC(=N)c3cccs3)cc12 come in under 20 for e/n?
Ans: not met

Q: is_below(e/n, 20) for N=C(Nc1ccc2[nH]cc(C3CCN(C(=O)c4ccccc4)CC3)c2c1)c1cccs1 ?
Ans: met

Q: Consider the molecule CCSC(=N)Nc1ccc2[nH]cc(C3=CCN(C)CC3)c2c1 . Is its e/n strictly less than 20?
Ans: not met

Q: Does CN1CCC(c2c[nH]c3ccc(NC(=N)c4cccs4)cc23)CC1 have e/n strictly under 20?
Ans: met
